# Test system: Plasmodium berghei
# assay_info: Reduced parasitemia in Plasmodium berghei infected NMRI mice (Mus musculus)
# Format: functional
# Design: concentration or dose not given beside the values
Activity: recorded values
Numeric only. Scale: %

# compound, unit_text, Activity
rows = [
    ("Cc1ccc(CNC(=O)C(C[C@H]2O[C@@H]3O[C@]4(C)CC[C@H]5[C@H](C)CC[C@@H]([C@H]2C)[C@@]35OO4)C[C@H]2O[C@@H]3O[C@]4(C)CC[C@H]5[C@H](C)CC[C@@H]([C@H]2C)[C@@]35OO4)cc1 (some centres not stated)", "%", 99),
]

[ask] Provide Activity value for the following compound: C[C@H]1[C@@H](CC(C[C@H]2O[C@@H]3O[C@]4(C)CC[C@H]5[C@H](C)CC[C@@H]([C@H]2C)[C@@]35OO4)C(=O)N[C@@H](C)c2ccc(F)cc2)O[C@@H]2O[C@]3(C)CC[C@H]4[C@H](C)CC[C@@H]1[C@@]24OO3 (some centres not stated)
[reply] 98.9

---

# System: Plasmodium berghei
# assay_info: Antimalarial survival activity in Plasmodium berghei infected NMRI mice (Mus musculus) at 30 mg/kg peroral dose
# Assay type: functional
# condition_set: route oral
Param label: returns yes (1) when Survival < 10 days, returns no (0) otherwise, including exact equality.

Would you please look over these solved cases?
# molecule, label_class
measured = [
    ("C[C@H]1[C@@H](CC(O)(COCC#CCOCc2ccc(F)cc2)C[C@H]2O[C@@H]3O[C@]4(C)CC[C@H]5[C@H](C)CC[C@@H]([C@H]2C)[C@@]35OO4)O[C@@H]2O[C@]3(C)CC[C@H]4[C@H](C)CC[C@@H]1[C@@]24OO3 (stereo partly drawn)", "yes (1)"),
    ("C[C@@H]1CC[C@H]2[C@@H](C)C(OC(=O)CCC(=O)[O-])O[C@@H]3O[C@]4(C)CC[C@@H]1[C@]32OO4.[Na+] (stereo partly drawn)", "yes (1)"),
    ("Cc1ccc(CNC(=O)C(C[C@H]2O[C@@H]3O[C@]4(C)CC[C@H]5[C@H](C)CC[C@@H]([C@H]2C)[C@@]35OO4)C[C@H]2O[C@@H]3O[C@]4(C)CC[C@H]5[C@H](C)CC[C@@H]([C@H]2C)[C@@]35OO4)cc1 (stereo partly drawn)", "no (0)"),
    ("C[C@H]1[C@@H](CC2(C[C@H]3O[C@@H]4O[C@]5(C)CC[C@H]6[C@H](C)CC[C@@H]([C@H]3C)[C@@]46OO5)COC3(CCC(=O)CC3)O2)O[C@@H]2O[C@]3(C)CC[C@H]4[C@H](C)CC[C@@H]1[C@@]24OO3 (stereo partly drawn)", "yes (1)"),
    ("Cc1noc(C(C[C@H]2O[C@@H]3O[C@]4(C)CC[C@H]5[C@H](C)CC[C@@H]([C@H]2C)[C@@]35OO4)C[C@H]2O[C@@H]3O[C@]4(C)CC[C@H]5[C@H](C)CC[C@@H]([C@H]2C)[C@@]35OO4)n1 (stereo partly drawn)", "no (0)"),
]

[ask] Would you kindly verify if Survival of C[C@H]1[C@@H](CC(C[C@H]2O[C@@H]3O[C@]4(C)CC[C@H]5[C@H](C)CC[C@@H]([C@H]2C)[C@@]35OO4)C(=O)N[C@@H](C)c2ccc(F)cc2)O[C@@H]2O[C@]3(C)CC[C@H]4[C@H](C)CC[C@@H]1[C@@]24OO3 (stereo partly drawn) is strictly less than 10 days?
[reply] no (0)

[ask] Would you kindly verify if Survival of C[C@H]1[C@@H](CC2(C[C@H]3O[C@@H]4O[C@]5(C)CC[C@H]6[C@H](C)CC[C@@H]([C@H]3C)[C@@]46OO5)COC3(CCOCC3)O2)O[C@@H]2O[C@]3(C)CC[C@H]4[C@H](C)CC[C@@H]1[C@@]24OO3 (stereo partly drawn) is strictly less than 10 days?
[reply] yes (1)

[ask] Would you kindly verify if Survival of CCOC(=O)N1CCC2(CC1)OCC(C[C@H]1O[C@@H]3O[C@]4(C)CC[C@H]5[C@H](C)CC[C@@H]([C@H]1C)[C@@]35OO4)(C[C@H]1O[C@@H]3O[C@]4(C)CC[C@H]5[C@H](C)CC[C@@H]([C@H]1C)[C@@]35OO4)O2 (stereo partly drawn) is strictly less than 10 days?
[reply] yes (1)

[ask] Would you kindly verify if Survival of CCN(CC)C(=O)OCC(C[C@H]1O[C@@H]2O[C@]3(C)CC[C@H]4[C@H](C)CC[C@@H]([C@H]1C)[C@@]24OO3)C[C@H]1O[C@@H]2O[C@]3(C)CC[C@H]4[C@H](C)CC[C@@H]([C@H]1C)[C@@]24OO3 (stereo partly drawn) is strictly less than 10 days?
[reply] no (0)
